B1: CPEB3 Ribozyme (parent)
chain: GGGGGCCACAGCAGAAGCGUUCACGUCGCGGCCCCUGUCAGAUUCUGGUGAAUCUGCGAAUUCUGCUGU

Variants of: B1
Test: self-cleavage, relative activity (ratio to wild type); higher = more cleavage; co-transcriptional
// map self-cleavage onto a label; ranges group 1 (below 0.3), group 2 (0.3 to below 0.8), group 3 (0.8 or more)

Q: Where would GGGGGCCACAGCAGAAGCGUUCACGUCGCGGCCCGUGUCAGAUUCUGGUGAAUCGGCGAAUUCUGCUGU [C35G U55G] land among the classes by reported self-cleavage?
Ans: group 1

Q: Which self-cleavage band matches CGGGGCCACAGCAGAAGCGUUCACGACGCGGCCCCUGUCAGAUUCUGGUGAAUCUGCGAAUUCUGCUGU [G1C U26A] ?
Ans: group 1

Q: Kindly state the category for this variant: GGGGGCCACAGCAGAAGCGUUCACGUCGCGGCCCCUGUCAGAUUCUGGUGAACCUGCGAAAUCUGCUGU [U53C U61A]
Ans: group 2

Q: Sort into band: GGGGGCCACAGCAGAAGCGUUCACGUCGCGGCCACUGGCAGAUUCUGGUGAAUCUGCGAAUUCUGCUGU [C34A U38G]
Ans: group 1

Q: Which self-cleavage band matches GGGGGCCACAGCAGAAGCGUUCACGUCGCGGCCCCUGUCAGAUUAUGGUGAAUCUGCGAAUUCUGUUGU [C45A C66U] ?
Ans: group 3

Q: Assign a bin to GGGGGCCACAGCAGAAGCGUUCACCUCGCGGCCCCUGUCAGAUUCUGGCGAAUCUGCGAAUUCUGCUGU [G25C U49C]
Ans: group 1

Q: Class for GGGGGCCACAGCAGAAGCGUUCAAGUCGCGGCCCCUGUCAGAUUCUGGUUAAUCUGCGAAUUCUGCUGU [C24A G50U] ?
Ans: group 2

Q: Into which bin does this variant go? GGGGGCCACAGCAGAAGCGUUCACGUCGCCGCCCCUGUCAGAUCCUGGUGAAUCUGCGAAUUCUGCUGU [G30C U44C]
Ans: group 2

Q: For GGGGGCCACAGCAGAAGCGUUCACGUCGCGGCCGCUGUCAGGUUCUGGUGAAUCUGCGAAUUCUGCUGU [C34G A42G] , which self-cleavage bin applies?
Ans: group 2

Q: Assign a category based on measured self-cleavage for GGGGGCCACAGCAGAAGCGUUCACGUCGCGGCCCCUGUCAGAUUCUGGUGAAUCUGCGACUACUGCUGU [A60C U62A] and give only the class name.
Ans: group 2

Q: For the record GGGGGCCACAGCAGACGCGUUCACGUCGCGGCCCCUGUCAGAUUCUGGUGAAUCUGCGAAUUCCGCUGU [A16C U64C] , report the class its self-cleavage corresponds to.
Ans: group 1

Q: Record GGGGGCCACAGCAGAAGCGUUCACGUCGGGGCCCCUGUCAGAUUCUGGUGCAUCUGCGAAUUCUGCUGU [C29G A51C] — which class?
Ans: group 2

Q: Hi, small favor: classify GGGGGCCACAGCAGAAGCGUUCACGUCGCGGCCCCUGUCUGAUUCUGGUGAAUCUGCGAAUUCUGCUGU [A40U] by its self-cleavage when you get a moment.
Ans: group 3

Q: Please indicate the class for GGGGGCCACAGCAGAAGCGUUCACGUCGCGCCCCCUGUCAGAUUCUGGUGAAUCUGUGAAUUCUGCUGU [G31C C57U] based on its self-cleavage.
Ans: group 1

Q: Note: place this variant into its band. Item: GGGGGCCACAGCAGAAGCGUUCACGUCGCGGCCCCUGUCAGCUUCUGGCGAAUCUGCGAAUUCUGCUGU [A42C U49C]
Ans: group 3

Q: // bin(item) where item = GGGGGCCACAGCAGAAGCGUUCACGUCGCGGCCCCUGUCAGAUACUUGUGAAUCUGCGAAUUCUGCUGU [U44A G47U]
Ans: group 3

Q: Which class does GGGGGCCACAGCAGAUGCGUCCACGUCGCGGCCCCUGUCAGAUUCUGGUGAAUCUGCGAAUUCUGCUGU [A16U U21C] fall in?
Ans: group 2

Q: Which band does GGGGGCCACAGCAGAAGCGUUCACGUCGCGGCCCAUGUCAGAUUCUGGUGAUUCUGCGAAUUCUGCUGU [C35A A52U] fall in?
Ans: group 1

Q: Note: place this variant into its band. Item: GGGGGCCACAGCAGAAGCGUUCAUGUCGCGGCCCCUGUCAGAUUCUGGUGAAUGUGCGAAUUCUGCUGU [C24U C54G]
Ans: group 2

Q: Category lookup for the variant GGGGGCCACAGAAGAAGCGUUCACGUCGCGGCCCCUGUCAGAUUCUGGUGAAUCUGCGAAUUUUGCUGU [C12A C63U]
Ans: group 2

Q: Looking at GGGGGCCACAGCAGAAGGGUUCACGUCGCGGCCCCUGUCAGAUUCUGGUGAAUCUGCGAAUGCUGCUGU [C18G U62G] , which class would you pick?
Ans: group 1

Q: Looking at GGGGGCCACAGCAGCAGCGUUCACGUCGCGGCCCCUGUCAGAUUCUGGUGAAUCUGCGAAUUAUGCUGU [A15C C63A] , which class would you pick?
Ans: group 3

Q: Which class is correct for the following variant? GGGGGCCACAGCAGAAGCGUUCACGUCCCGGCGCCUGUCAGAUUCUGGUGAAUCUGCGAAUUCUGCUGU [G28C C33G]
Ans: group 1

Q: Lab note: which band did GGGGGCCACAGCAGAAGCGUUCACGUCGCGGCUCCUGUCAGAUACUGGUGAAUCUGCGAAUUCUGCUGU [C33U U44A] land in?
Ans: group 3

Q: Quick check: band for GGGGGCCACAGCAGAAGCGUUCACGUCGCGGCCCCUGUAAGAUUCUGGGGAAUCUGCGAAUUCUGCUGU [C39A U49G]
Ans: group 3

Q: Pick a category. Item: GGGGGCCACAGCAGAAGCGUUCACGUCGCGGCACCUCUCAGAUUCUGGUGAAUCUGCGAAUUCUGCUGU [C33A G37C]
Ans: group 1

Q: Place this variant in its band: GGGGGCCACAGCAGAAGUGUUCACGUCGCGGCCCCUGUCAGAUUCUGGAGAAUCUGCGAAUUCUGCUGU [C18U U49A]
Ans: group 3

Q: For UGGGGCCACAGCAGAAGCGUUCACGUCGCGGCCCGUGUCAGAUUCUGGUGAAUCUGCGAAUUCUGCUGU [G1U C35G] , which self-cleavage bin applies?
Ans: group 1

Q: Hi, small favor: classify GGGGGCCACAGCAGAAGCGUUCACGUCGCGGCCCCUGACAGAUUCUGGUGAAUCUGCGAAUUCGGCUGU [U38A U64G] by its self-cleavage when you get a moment.
Ans: group 3

Q: Form: Item = GGGGGCCACAGCAGAAGCGUUCACGUCGCGACCCCUGUCAGAUUCUGAUGAAUCUGCGAAUUCUGCUGU [G31A G48A] ; Class = ?
Ans: group 3

Q: Which class does GGGGGCCACAGCAGAAGCGUUCACGUCGCUGCCCCUGUCAGAUUCUGGUGAAUCUGCGAAUACUGCUGU [G30U U62A] fall in?
Ans: group 1

Q: Assign a bin to AGGGGCCACAGCAGAAGCGUUCACGUCGCGGCCCCUGUCAGAUUCUGGUCAAUCUGCGAAUUCUGCUGU [G1A G50C]
Ans: group 1

Q: Textbook exercise: identify the category of the variant given here, GGGGGCCACAGCAGAAGCGUUCGCGUCGCGGCCCCUGUCAGAUUCUGGUGAAUCUGCAAAUUCUGCUGU [A23G G58A] , according to its measured value.
Ans: group 3

Q: Entry GUGGGCCACAGCAGAAGCGUUCACGACGCGGCCCCUGUCAGAUUCUGGUGAAUCUGCGAAUUCUGCUGU [G2U U26A] belongs to which category?
Ans: group 1

Q: Which band does GGGGGCCACAGCAGAAGCGUUCACGUCGCGGCCCCUGGCAGAUUCUGGUGAAACUGCGAAUUCUGCUGU [U38G U53A] fall in?
Ans: group 1

Q: For the record GGGGGCCACAGCAGAAGCGUUCACGUCGCGACCCCUGUCAGAUUCUGGUGAAGCUGCGAAUUCUGCUGU [G31A U53G] , report the class its self-cleavage corresponds to.
Ans: group 2

Q: Class label required: GGGGGCCACAGCAGAAGCGUUCACGUCGCGGCCCCUGUCAGAUUCUGGUGAAUCUGCGAAUUCUGUUAU [C66U G68A]
Ans: group 3

Q: State the band of GGGGGCCACAGCAGAAGCGUUCACGUCGCGGCCACUGUCAGAUUCUGGUGAAUCUGCUAAUUCUGCUGU [C34A G58U]
Ans: group 3

Q: Entry GGGGGCCACAGCAGAAGCGUUCACGUCGCGGACCCUGUCAGAUUCUGGUGAAUCUGCGAAUUAUGCUGU [C32A C63A] belongs to which category?
Ans: group 2

Q: Which class holds GGGGGCCACAGUAGAAGCGUUCACGUCGCGGUCCCUGUCAGAUUCUGGUGAAUCUGCGAAUUCUGCUGU [C12U C32U] ?
Ans: group 3

Q: Would you mind sorting GGGGGCCACAGCAGAAGCGUUCACGUCGCGGCCCCUGUCAGAUUCUGGUGAAUCUUCGAAGUCUGCUGU [G56U U61G] into the appropriate category?
Ans: group 2

Q: Which class is correct for the following variant? GGGGGCCACAGCAGAAGCGUUCACGUCGCGGCCCCUGUCAGAUUCUGGUGAAUCUGCGACUUCCGCUGU [A60C U64C]
Ans: group 2

Q: Textbook exercise: identify the category of the variant given here, GGGGGCCACAGCAGAAGCGUUCACGUCGCGGCCCCUGUCAGAUUCUGGUGAUUCUGCGAAUUCUUCUGU [A52U G65U] , according to its measured value.
Ans: group 2

Q: Returns: class label. Input: GGGGGCCACAGCAGAAGCGUUCACGUCGCGGCCCCUGUCAGAUACUGGUGAAUCUGCGAAUUUUGCUGU [U44A C63U]
Ans: group 3

Q: Which class does GGGGGCCACAGCAGAAGCGUUCACGUCGCGGCCCCUGUCAGAUUCUGGUGAAUCUGCGAAUACUCCUGU [U62A G65C] fall in?
Ans: group 2

Q: Each variant maps to one class by self-cleavage. Which class for GGGGGCCACAACAGAAGCGUUCACGUCGCGGCCCCUGUCAGAUUCUGGUGCAUCUGCGAAUUCUGCUGU [G11A A51C] ?
Ans: group 2
